# tested-on: T1, CD27 expressed on the cell surface (HT1080_CD27 cells) (human, UniProt P26842 20-260)
# T1 sequence (looked up): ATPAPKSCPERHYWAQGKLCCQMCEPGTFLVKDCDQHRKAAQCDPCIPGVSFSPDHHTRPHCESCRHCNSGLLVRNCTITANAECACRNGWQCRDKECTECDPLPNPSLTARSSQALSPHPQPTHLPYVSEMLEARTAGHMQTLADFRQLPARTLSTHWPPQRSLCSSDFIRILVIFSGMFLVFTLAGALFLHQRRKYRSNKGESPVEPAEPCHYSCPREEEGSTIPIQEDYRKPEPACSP
# test: cell-based or functional assay; further: test concentration or dose not given here
Provide the reported IL-8 [abs. corr.] of each item.
Only the number, expressed in abs. corr., is required.

Given P018.S.03.A.D06 (antibody, V domains shown, V regions on human Ig constant parts; also called AB27_51) VH: QSLEESGGRLVTPGTPLTLTCTASGFSLSSYWMSWVRQAPGKGLEWIGYIYAGSGSAYYASWVKGRFTISKTSTTVDLKISSPTTEDTATYFCGRGNYDGYINVYDLWGPGTLVTVSS VL: DVVMTQTPSSVEAAVGGTVTIKCQASQSIGSYLAWYQKKPGQPPKLLIYAAANLAAGVPSRFKGSGSGTDFTLTINDLESADAATYYCQNNNGAYGSAYVGAFGGGTEVVVK , state its recorded IL-8 [abs. corr.].
0.245

Given P018.S.06.A.A03 (antibody, V domains shown, V regions on human Ig constant parts; also called AB27_96) VH: QSVEESGGRLVTPGTPLTLTCTVSGFSLSSNAMTWVRQAPGKGLEWIGFINTGSSTYYASWAKGRFTISKTSTTVDLKITSPTTEDTATYFCARDADDSRGYYWGLWGQGTLVTVSS VL: AYDMTQTPASVPAAVGGTVTIKCQASEDIYSLLAWYQQKPGQPPKLLIYDASDLASGVPSRFRGSGSGTDYTLTISGVESADAATYYCQQGYTTYTTVDNIFGGGTEVVVK , state its recorded IL-8 [abs. corr.].
0.576

Given P018.S.07.A.H05 (antibody, V domains shown, V regions on human Ig constant parts; also called AB27_133) VH: QSLEESGGRLVTPGTPLTLTCTASGFSLNSYYINWVRQAPGKGLEWIGFINGYDNTWYASWAKGRFTISRTSTTVDLRITSPTTEDTATYFCARDPGGASGTGRLDLWGQGTLVTVSS VL: DIVMTQTPASVSAAVGGTVTINCQASQSISTALAWYQQKPGQRPKLLIYDASKLASGVPSRFKGNGSGTEFTLTISDLESADAATYYCQCTYYDAYDVGAFGGGTEVVVN , state its recorded IL-8 [abs. corr.].
-0.16
